B1: tRNA (parent)
chain: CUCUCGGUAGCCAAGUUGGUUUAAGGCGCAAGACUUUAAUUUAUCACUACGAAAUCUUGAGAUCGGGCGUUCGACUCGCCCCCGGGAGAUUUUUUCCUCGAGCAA

Variants of: B1
Assay: nonsense suppression (GFP-seq) (ratio to wild type); higher = more function; SUP4oc tRNA, yeast GFP reporter sort-seq
This sample holds only a part of the variants without activity.
observable: nonsense suppression

>>> print(df.to_string())
     variantidentifier  comparator  valuemeasured
 0            C1U C12G           =          0.327
 1           U16G A23G           =          0.129
 2           U21C G78U           =          0.442
 3  U2A C34A G78U G86U           ≤          0.026
 4            U8C U21G           =         0.0903
 5      U17A G26U A89U           ≤          0.026
 6  C5A G18U U76C G86A           ≤          0.026
 7           U17C A60C           =          0.196
 8       G7C C11G C79A           ≤          0.026
 9            C3U A13U           =          0.194
10           U22G G78C           =         0.0318
11        U2A U4G G18A           ≤          0.026
12           U21A G61U           =          0.791
13                C81U           =           1.16
14      C11U A62G U63A           ≤          0.026
15                U21G           =           1.04
16           C34G U57A           ≤          0.026
17    C5A U8C A9U C80A           ≤          0.026
18      C27G U57C G86C           ≤          0.026
19           A24C G84A           =          0.478
20           A31G U35C           =         0.0321
21      U57C U58A A62C           ≤          0.026
